Each recorded value in this set is attributed to paper PMC9352680.

Target: T1, PUF4 RNA-binding domain (Saccharomyces cerevisiae, UniProt P25339 537-888)
T1 sequence: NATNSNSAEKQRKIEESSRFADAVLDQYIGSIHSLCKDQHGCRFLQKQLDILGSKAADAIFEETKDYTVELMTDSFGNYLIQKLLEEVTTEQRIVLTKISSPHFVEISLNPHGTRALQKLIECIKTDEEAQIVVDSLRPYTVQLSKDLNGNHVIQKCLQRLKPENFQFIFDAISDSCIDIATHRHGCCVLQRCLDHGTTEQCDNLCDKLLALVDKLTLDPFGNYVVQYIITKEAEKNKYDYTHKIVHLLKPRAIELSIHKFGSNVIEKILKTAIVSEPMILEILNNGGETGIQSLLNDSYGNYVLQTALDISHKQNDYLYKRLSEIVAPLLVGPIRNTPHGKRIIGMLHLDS
Assay: Mg; RNA-MaP; 20 mM Na-HEPES pH 7.4, 30 mM KOAc, 0.75 mM MgCl2, 0.1% Tween-20, 5% glycerol, 0.1 mg/mL BSA, 2 mM DTT; 25 C; 0.0125-409.6 nM protein
Conditions: tags: N-His6-TEV cleaved; C-SNAP kept, Cy3B-labelled; label: tethered on chip by stalled RNA polymerase
pKd: −log10 of the molar value.
Readings of pKd for the listed binders

binder | relational_operator | pKd
UCUCUUUUACACUUAUUAUCUCUCUU (ssRNA) [Id_ii_S1_P5E.4_K5.3_C5.2_[C-2T]_H5.3_A5.1_F5.1_T5.2_[A12C]] | < | 5.64
Id_ii_S2_P5E.3_K5.2_C5.2_H5.2_A5.1_F5.1_T5.2_[T11A]_[A12C] (ssRNA) RNA: UUUGAUUAAUAUGAUAUCGUUCUUUCUCUUAUAUUAUUAACUUCUUUCUCGAUAUCAUAUUAAUCUUU | = | 6.64
Id_ii_S2_P3E.3_K3.2_C3.2_[C-2T]_[T-1G]_H3.2_A3.1_F3.1_T3.2_[T9A]_[A10T] (ssRNA) RNA: UUUGAUUAAUAUGAUAUCGUUCUUUCUUGUAUAUAUAAUUUCUUUCUCGAUAUCAUAUUAAUCUUU | = | 8.78
UCUCUUCCUGUAUAUUAUCUCUCUU (ssRNA) [Id_ii_S1_P4E.2_K4.1_C4.2_[T-1C]_H4.1_A4.1_F4.1_T4.2_[G10T]_[T11C]] | = | 9.22
Ib_S4_P4E.1_K4.1_C4.1_H4.1_A4.1_[A6C]_F4.1_[A9T]_T4.1 (ssRNA) RNA: UUUGACAACUGAUCGUUCUUUCUUGUAUCUUUUUCUUUCUCGAUCAGUUGUCUUU | = | 7.97
UCUCUUCUUAUAUAUUAAAUCUCUU (ssRNA) [Id_ii_S1_P4E.3_K4.2_C4.2_H4.2_A4.1_F4.1_T4.2_[G10A]_[T11A]] | = | 7.36
Id_ii_S2_P5E.2_K5.1_C5.2_[C-2T]_[T-1A]_H5.1_A5.1_F5.1_T5.2_[A12T] (ssRNA) RNA: UUUGAUUAAUAUGAUAUCGUUCUUUCUUAUGUAUUAUUAUUUUCUUUCUCGAUAUCAUAUUAAUCUUU | = | 8.55
Id_ii_S2_P5E.3_K5.2_C5.2_[C-2T]_[T-1C]_H5.2_A5.1_F5.1_T5.2_[T11A]_[A12C] (ssRNA) RNA: UUUGAUUAAUAUGAUAUCGUUCUUUCUUCUAUAUUAUUAACUUCUUUCUCGAUAUCAUAUUAAUCUUU | = | 7.02
Id_ii_S4_P3E.4_K3.3_C3.2_[T-1C]_H3.3_A3.1_F3.1_T3.2_[T9G]_[A10C] (ssRNA) RNA: UUUGACAACUGAUCGUUCUUUCUCCACACUAUAGCUUCUUUCUCGAUCAGUUGUCUUU | < | 5.64
UCUCUUUUUGUAUUAUUAUCUCUCUU (ssRNA) [Id_ii_S1_P5E.2_K5.1_C5.2_[C-2T]_H5.1_A5.1_F5.1_T5.2_[A12C]] | = | 8.27
UCUCUUCCUGUAUAUUAAGUCUCUU (ssRNA) [Id_ii_S1_P4E.2_K4.1_C4.2_[T-1C]_H4.1_A4.1_F4.1_T4.2_[G10A]_[T11G]] | = | 8.72
Ic_S4_P5E.1_K5.1_C5.1_H5.1_A5.1_[T6C]_[A7G]_F5.1_[T8C]_[T9C]_T5.1 (ssRNA) RNA: UUUGACAACUGAUCGUUCUUUCUUGUAUCGCCAUUCUUUCUCGAUCAGUUGUCUUU | = | 6.07
UCUCUUCAUGUAUUAUUAUUUCUCUU (ssRNA) [Id_ii_S1_P5E.2_K5.1_C5.2_[T-1A]_H5.1_A5.1_F5.1_T5.2_[A12T]] | = | 8.00
Ie_S2_P5E.1_K5.1_C5.1_H5.1_[+3CCC]_A5.1_F5.1_T5.1 (ssRNA) RNA: UUUGAUUAAUAUGAUAUCGUUCUUUCUUGUCCCAUUAUUAUUCUUUCUCGAUAUCAUAUUAAUCUUU | = | 7.61
Ic_S2_P5E.1_K5.1_C5.1_H5.1_A5.1_[T5G]_[T6C]_[A7T]_F5.1_[A10T]_T5.1 (ssRNA) RNA: UUUGAUUAAUAUGAUAUCGUUCUUUCUUGUAGCUUUUUUCUUUCUCGAUAUCAUAUUAAUCUUU | = | 7.43
Ic_S4_P3E.1_K3.1_C3.1_H3.1_A3.1_[T5G]_[A6C]_F3.1_[T7A]_[A8G]_T3.1 (ssRNA) RNA: UUUGACAACUGAUCGUUCUUUCUUGUAGCAGUUCUUUCUCGAUCAGUUGUCUUU | = | 6.08
Ib_S2_P3E.1_K3.1_C3.1_H3.1_[T1C]_A3.1_F3.1_[A8G]_T3.1 (ssRNA) RNA: UUUGAUUAAUAUGAUAUCGUUCUUUCUCGUAUAUGUUCUUUCUCGAUAUCAUAUUAAUCUUU | < | 5.64
Ib_S2_P5E.1_K5.1_C5.1_H5.1_[A4C]_A5.1_[T5G]_F5.1_T5.1 (ssRNA) RNA: UUUGAUUAAUAUGAUAUCGUUCUUUCUUGUCGUAUUAUUCUUUCUCGAUAUCAUAUUAAUCUUU | = | 7.40
UCUCUUUGUAAUAUUCUCUCUU (ssRNA) [Ib_S1_P5E.1_K5.1_C5.1_H5.1_A5.1_[T5A]_F5.1_[A10C]_T5.1] | = | 7.67
Ie_S2_P5E.1_K5.1_C5.1_H5.1_A5.1_[+5TTCC]_F5.1_T5.1 (ssRNA) RNA: UUUGAUUAAUAUGAUAUCGUUCUUUCUUGUAUUUCCUAUUAUUCUUUCUCGAUAUCAUAUUAAUCUUU | = | 8.15
UCUCUUUGUACGUGCCUCUCUU (ssRNA) [Ic_S1_P5E.1_K5.1_C5.1_H5.1_A5.1_[T5C]_[T6G]_[A7T]_F5.1_[T8G]_[T9C]_[A10C]_T5.1] | = | 6.23
UCUCUUUGUAUUUAUCUCUU (ssRNA) [Ia_S1_P3E.1_K3.1_C3.1_H3.1_A3.1_[A6T]_F3.1_T3.1] | = | 7.44
Id_ii_S4_P4E.4_K4.3_C4.2_[C-2G]_H4.3_A4.1_F4.1_T4.2_[G10C]_[T11C] (ssRNA) RNA: UUUGACAACUGAUCGUUCUUUCUGUACACUAUUACCUUCUUUCUCGAUCAGUUGUCUUU | = | 8.99
